# Test system: SK-OV-3 ovarian
# procedure details: NCI tumour cell line growth inhibition, 48 h
Where a SMILES comes first, the peptide text is derived from it. [ ]: non-standard residue; d: D form. The star is where a group is joined. Boc = CC(C)(C)OC(=O)*; Lac = C[CH](O)C(=O)O; OBn = c1ccc(CO*)cc1
measured property: TGI

-- ask So what's the measured TGI for this one? C=CCc1cc(OC)c2c(c1)C(O)CC(c1ccc(OC)c(OC)c1)O2 (stereo unspecified)
-- reply > 100 µM

-- ask So what's the measured TGI for this one? CS(=O)(=O)OCCCCOS(=O)(=O)CF
-- reply > 100 µM

-- ask So what's the measured TGI for this one? CC(OC(=O)C(Cc1ccccc1)NC(=O)C(Cc1ccccc1)NC(=O)OC(C)(C)C)C(=O)OCc1ccccc1 (stereo not drawn) (Boc-Phe-Phe-[Lac]-OBn; configuration not given here)
-- reply > 100 µM

-- ask So what's the measured TGI for this one? Cc1ccc(S(=O)(=O)NC(=O)NC(CC(N)=O)C(=O)O)cc1 (stereo unspecified)
-- reply > 100 µM

-- ask So what's the measured TGI for this one? CC(C)=C1C(=O)C[C@]2(C)C[C@H]3O[C@]3(C)CC[C@@H]3O[C@@]3(C)CC[C@@H]12
-- reply > 50 µM

-- ask So what's the measured TGI for this one? C=C1C[C@@H]2CC[C@@]34CC5O[C@H]6C(O[C@H]7CC[C@H](CC(=O)O[C@@H]8[C@@H](C)[C@@H]9O[C@@H]%10C[C@]%11(C[C@@H]%12O[C@]%13(C[C@H](C)[C@@H]%14O[C@@H]%15CC(C(O)CO)O[C@@H]%15C[C@@H]%14O%13)C[C@H](C)[C@@H]%12O%11)O[C@@H]%10C[C@@H]9O[C@H]8CC8O[C@@H](CC[C@@H]1O2)C[C@@H](C)C8(O)CO)O[C@@H]7[C@@H]6O3)[C@H]5O4 (stereo partly specified)
-- reply > 1 µM
